test-method-notes: qHTS for Inhibitors of human tyrosyl-DNA phosphodiesterase 1 (TDP1): qHTS in cells in absence of CPT; note: nearly all actives have a fitted effect of over 55% in size
condition-context: DT40 Tdp1-/- hTDP1 cells, no CPT, ATP luminescence, 48 h
Protocol: Human tyrosyl-DNA phosphodiesterase 1 (TDP1) is a novel repair gene, and we propose to use it as a new target for anticancer drug development. […] For the primary screen, Tdp1-/-;hTDP1 cells will be exposed to small molecules in the presence or absence of CPT, and their growth kinetics will be evaluated after 48 hours by measuring ATP activity. […] The hit compounds will then be evaluated in the presence or absence of CPT using Tdp1-/- cells. […]
Out of some 420,000 compounds screened, about 64,000 (15%) were called active. Inconclusive results (about 27%) are left out. Calls come from the whole dose curve; as a rule, active = well fitted inhibition curve with a large enough effect; inconclusive = small, poorly fitted or top-dose-only effect; inactive = flat fitted curve, though single readings scatter. Not all results are given here.
A correct response names exactly one class from active, inactive

molecule: O=c1[nH]c(N2CCOCC2)nc2ccccc12
assigned-category: inactive
--
molecule: CS(=O)(=O)N(CC(=O)N1CCOCC1)c1ccc2c3c(cccc13)CC2
assigned-category: inactive
--
molecule: CCc1nnc(NC(=O)c2sc3nc(C)cc(COC)c3c2N)s1
assigned-category: inactive
--
molecule: O=S(=O)(c1ccccc1)N(CC(O)CN1CCCCC1)c1ccccc1 (centres undefined)
assigned-category: inactive

Prompt: I would be grateful if you could indicate the recorded call for O=[N+]([O-])c1ccc2nc(-c3ccccn3)[nH]c2c1 .
Response: active

Prompt: I would be grateful if you could indicate the recorded call for O=C1CC(Cc2ccc(Cl)cc2)C(=O)N1c1cc(Cl)ccn1 (centres undefined) .
Response: inactive

Prompt: I would be grateful if you could indicate the recorded call for Nc1nc2cc(Cl)ccc2n1N .
Response: inactive

Prompt: I would be grateful if you could indicate the recorded call for CCn1cc(C(=O)OCC(=O)Nc2cccc(C)c2)c(=O)c2ccc(C)nc21 .
Response: inactive

Prompt: I would be grateful if you could indicate the recorded call for CC1(C(=O)NS(=O)(=O)c2ccccc2)CCN1C(=O)C1CCCCC1 (centres undefined) .
Response: inactive

Prompt: I would be grateful if you could indicate the recorded call for CCC(=O)N(Cc1cc2cc(OC)ccc2[nH]c1=O)c1ccccc1C .
Response: inactive

Prompt: I would be grateful if you could indicate the recorded call for CC1CCc2sc3nc(N4CCN(CCO)CC4)n4ncnc4c3c2C1 (centres undefined) .
Response: inactive

Prompt: I would be grateful if you could indicate the recorded call for O=C1C(=O)N(CCCN2CCOCC2)C(c2ccc([N+](=O)[O-])cc2)/C1=C(\O)c1ccc2c(c1)OCCO2 (centres undefined) .
Response: inactive

----------
test-method-notes: qHTS for Inhibitors of human tyrosyl-DNA phosphodiesterase 1 (TDP1): qHTS in cells in absence of CPT; note: nearly all actives have a fitted effect of over 55% in size
condition-context: DT40 Tdp1-/- hTDP1 cells, no CPT, ATP luminescence, 48 h
Screen size: about 420,000 compounds; about 64,000 (15%) were called active. Another 27% or so got no clear call; they are omitted. Calls come from the whole dose curve; as a rule, active = well fitted inhibition curve with a large enough effect; inconclusive = small, poorly fitted or top-dose-only effect; inactive = flat fitted curve, though single readings scatter. A selection follows.
A correct response names exactly one class from active, inactive

compound: CSc1cc(C)n(-c2ccccc2C)c(=S)c1C(C)=O
assigned-category: inactive

In the following, a different compound is considered.
Prompt: I would be grateful if you could indicate the recorded call for CCC(C)(C)NC(=O)C1c2ccccc2Oc2ccccc21 .
Response: inactive

----------
test-method-notes: qHTS for Inhibitors of human tyrosyl-DNA phosphodiesterase 1 (TDP1): qHTS in cells in absence of CPT; note: nearly all actives have a fitted effect of over 55% in size
condition-context: DT40 Tdp1-/- hTDP1 cells, no CPT, ATP luminescence, 48 h
Among all 420,000 compounds or so, about 64,000 (15%) were called active. Not shown: some 27% with an inconclusive outcome. Calls follow the shape of the dose curve; as a rule, active = well fitted inhibition curve with a large enough effect; inconclusive = small, poorly fitted or top-dose-only effect; inactive = flat fitted curve, though single readings scatter. The list is a sample of the results.
A correct response names exactly one class from active, inactive

Answered cases to consult:
molecule: Cc1csc(OCC(=O)Nc2ccc(C)c(C)c2)n1
assigned-category: inactive
--
molecule: Cc1cc(/C=N/NC(N)=O)c(C)n1C1CCCCC1
assigned-category: inactive
--
molecule: O=C(O)CC(Cc1ccccc1)C(=O)Nc1ccc([N+](=O)[O-])cc1 (stereo not drawn)
assigned-category: inactive
--
molecule: CC(C)(C)NC(=O)NC(=O)COC(=O)Cc1c(F)cccc1Cl
assigned-category: inactive
--
molecule: O=C(Cc1ccc(Br)cc1)NCCc1ccccc1
assigned-category: inactive

Prompt: I would be grateful if you could indicate the recorded call for COc1ccc(S(=O)(=O)N2CCCC2CNC(=O)C(=O)NC2CC2)cc1 (stereo not drawn) .
Response: inactive

Prompt: I would be grateful if you could indicate the recorded call for C#CCN1C(=O)C(O)(CC(=O)c2cc(OC)ccc2OC)c2ccccc21 (stereo not drawn) .
Response: active

Prompt: I would be grateful if you could indicate the recorded call for CC(NC(=O)c1ccccc1)C(=O)Nc1ccccc1 (stereo not drawn) .
Response: inactive

Prompt: I would be grateful if you could indicate the recorded call for CCOC(=O)C1=CN(Cc2ccc(Br)cc2)S(=O)(=O)NC1C (stereo not drawn) .
Response: inactive

Prompt: I would be grateful if you could indicate the recorded call for Cc1ccc(-c2csc(-c3cc(C)on3)n2)cc1 .
Response: inactive

Prompt: I would be grateful if you could indicate the recorded call for CCOC(=O)C1(Cc2cccc(OC)c2)CCN(Cc2csc(C(C)=O)c2)CC1 .
Response: active

Prompt: I would be grateful if you could indicate the recorded call for CC(C(=O)O)N1C(=O)c2cccc3cccc1c23 (stereo not drawn) .
Response: inactive

This collection of values is drawn from PubChem BioAssay AID686978.
